Data provenance is patent EP0446604A2.

Test system: spontaneously hypertensive rats of the Okamoto strain
protocol notes: Hypotensive activity in spontaneously hypertensive rats (method of Chan and Poorvin)
Type: in vivo
run conditions: by gavage, 100 mg/kg or less, second identical dose 24 hours later; MABP measured 28 hours after initial dose; average MABP of the rats used 160±1.5 mm of mercury
Structures can show the parent of a compound that is named as a salt.
property measured: Avg. MABP in mm Hg (No. of Rats)

For orientation, consider the following solved cases.
Cc1nc(NCCCn2ccnc2)ccc1C#N; 61 (2) mm Hg
Cc1cc(NCCCn2ccnc2)nc2ccccc12; 100 (3) mm Hg
N#Cc1cc2ccccc2nc1NCCCn1ccnc1; 94 (2) mm Hg

Given Cc1cc(NCCCCc2cccnc2)nc2ccccc12 [Example 103, dihydrochloride] , respond with its Avg. MABP in mm Hg (No. of Rats). 87 (2) mm Hg

Consider the compound Cc1cc(NCCCCn2ccnc2)nc2ccccc12 . State its measured Avg. MABP in mm Hg (No. of Rats). 96 (2) mm Hg

Tell us which Avg. MABP in mm Hg (No. of Rats) value is on record for Cc1ccc(C#N)c(NCCCn2ccnc2)n1 80 (2) mm Hg

Please give measured Avg. MABP in mm Hg (No. of Rats) of the following entry: c1ccc2nc(NCCCn3ccnc3)ccc2c1 97 (2) mm Hg

Specify reported Avg. MABP in mm Hg (No. of Rats) for the compound shown: c1ccc2c(NCCCn3ccnc3)nccc2c1 121 (3) mm Hg

Name the recorded Avg. MABP in mm Hg (No. of Rats) of the compound listed here: COc1ccc2nc(NCCCCc3cccnc3)cc(C)c2c1 120 (2) mm Hg
